Measured log2 fold change of degron read counts accompanies every entry in the list below.
- System Name: T1, CRBN, Q96SW2;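 note: pooled lentiviral library of zinc finger degron-EGFP fusions in mCherry-positive Jurkat cells, FACS-sorted after compound exposure, with degron abundance counted by next-generation sequencing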
- T1 chain: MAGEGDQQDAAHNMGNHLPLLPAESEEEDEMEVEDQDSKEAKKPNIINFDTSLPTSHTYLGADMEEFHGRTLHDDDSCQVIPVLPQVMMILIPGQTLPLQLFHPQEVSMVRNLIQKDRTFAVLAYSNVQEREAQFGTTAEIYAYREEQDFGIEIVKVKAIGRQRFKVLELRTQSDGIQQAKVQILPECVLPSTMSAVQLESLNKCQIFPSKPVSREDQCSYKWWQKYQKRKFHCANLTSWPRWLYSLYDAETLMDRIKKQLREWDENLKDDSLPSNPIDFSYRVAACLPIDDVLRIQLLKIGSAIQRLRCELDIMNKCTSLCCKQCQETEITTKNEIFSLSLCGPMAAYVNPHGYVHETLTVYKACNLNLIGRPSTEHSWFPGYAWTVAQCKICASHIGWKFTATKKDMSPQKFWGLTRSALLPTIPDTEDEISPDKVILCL
- Experiment: log2 fold change of degron read counts, EGFP-low vs EGFP+ sorted cells (limma voom), compound-induced degradation; higher = more compound-induced degradation of the degron-EGFP fusion; degrons are variants of IKZF1/3 zinc finger 2; compound dose not given here
- Experimental Conditions: Jurkat; 18 h; compound: compound 33 (diphenyl IMiD analogue)
Whole data set: some 8,300 sequences, median “log2 fold change of degron read counts, EGFP-low vs EGFP+ sorted cells (limma voom), compound-induced degradation” near -1.1, cut for the highest 2% near 3.2. Shown is part of a subset that was picked to be rich in the highest values.

# Primary Sequence, log2 fold change of degron read counts
rows = [
    ("FVCEICGRHFTQKGNLLRHIKL [46F_47V_49E_50I_52G_53R_54H_55F_67L_, Q9UKT9]", -2.13),
    ("FSCPICGAMFTQKGNLLRHIKL [46F_47S_49P_50I_52G_53A_54M_55F_67L_, Q9UKT9]", 1.5),
    ("FSCPICGADFTQKGNLLRHIKL [46F_47S_49P_50I_52G_53A_54D_55F_67L_, Q9UKT9]", 1.52),
    ("FVCPICGAMFTQKGNLLRHIKL [46F_47V_49P_50I_52G_53A_54M_55F_67L_, Q9UKT9]", 1.86),
    ("FVCPICGADFTQKGNLLRHIKL [46F_47V_49P_50I_52G_53A_54D_55F_67L_, Q9UKT9]", 1.21),
    ("FGCPICGAMFTQKGNLLRHIKL [46F_47G_49P_50I_52G_53A_54M_55F_67L_, Q9UKT9]", 1.89),
    ("FQCPICGAMFTQKGNLLRHIKL [46F_47Q_49P_50I_52G_53A_54M_55F_67L_, Q9UKT9]", 2.51),
]
